molecular target: PRMT5 (Homo sapiens, UniProt O14744); construct: purchased Viva (custom protein); test: PRMT5 IC50 assay in the presence of SAM as cofactor; assay type: biochemical
Sequence (O14744 whole entry): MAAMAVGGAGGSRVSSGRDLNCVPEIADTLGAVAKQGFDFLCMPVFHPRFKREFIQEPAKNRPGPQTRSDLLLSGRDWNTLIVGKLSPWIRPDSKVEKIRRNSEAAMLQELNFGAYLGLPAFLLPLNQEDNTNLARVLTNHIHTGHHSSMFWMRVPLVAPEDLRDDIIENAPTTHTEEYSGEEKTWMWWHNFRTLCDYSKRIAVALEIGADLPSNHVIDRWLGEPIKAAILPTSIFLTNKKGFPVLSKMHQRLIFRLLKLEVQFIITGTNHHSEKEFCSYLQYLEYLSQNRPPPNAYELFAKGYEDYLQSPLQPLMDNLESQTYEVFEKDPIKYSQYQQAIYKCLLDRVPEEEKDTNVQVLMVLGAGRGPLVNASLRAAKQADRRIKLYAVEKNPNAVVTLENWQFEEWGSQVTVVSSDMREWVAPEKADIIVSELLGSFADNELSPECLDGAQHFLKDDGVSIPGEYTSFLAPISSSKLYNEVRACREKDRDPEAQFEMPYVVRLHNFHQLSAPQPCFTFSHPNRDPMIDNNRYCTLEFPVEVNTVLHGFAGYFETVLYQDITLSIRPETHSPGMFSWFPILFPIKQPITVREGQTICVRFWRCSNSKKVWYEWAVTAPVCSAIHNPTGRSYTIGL
Sequence (Q9BQA1 whole entry partner): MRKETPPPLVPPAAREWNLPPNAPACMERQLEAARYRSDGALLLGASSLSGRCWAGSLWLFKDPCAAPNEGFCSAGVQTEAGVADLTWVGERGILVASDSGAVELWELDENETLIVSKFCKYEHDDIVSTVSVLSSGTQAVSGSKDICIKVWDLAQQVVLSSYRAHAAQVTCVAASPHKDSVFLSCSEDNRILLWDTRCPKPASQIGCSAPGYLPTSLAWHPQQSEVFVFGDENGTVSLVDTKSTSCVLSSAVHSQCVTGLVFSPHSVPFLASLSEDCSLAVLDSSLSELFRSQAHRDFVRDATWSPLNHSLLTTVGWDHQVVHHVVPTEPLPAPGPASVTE
Listing of entries alongside the reported IC50.

>>> result("Cc1ncoc1COc1ccc2c(c1C)CCN(C[C@@H](O)CNC(=O)c1cc(NC3CCC3)nc(N3CCCCC3)c1)C2")
"0.5 to 5 µM"
>>> result("CC(=O)N1CCN(c2nc(NC3COC3)cc(C(=O)NC[C@H](O)CN3CCc4cc(OCc5ocnc5C)ccc4C3)n2)CC1")
"0.05 to 0.5 µM"
>>> result("O=C(NC[C@H](O)CN1CCc2c(ccc(OCc3cnco3)c2Cl)C1)c1cc(NC2CCC2)nc(N2CCCCC2)c1")
"0.5 to 5 µM"
>>> result("Cc1c(OCc2cnco2)ccc2c1CCN(C[C@@H](O)CNC(=O)c1cccc(NC3COC3)c1)C2")
"0.5 to 5 µM"
>>> result("CC(=O)N1CCC(Nc2cc(C(=O)NC[C@H](O)CN3CCc4cc(OCc5ocnc5C)ccc4C3)cc(N3CCN(C(C)=O)CC3)n2)CC1")
"0.05 to 0.5 µM"

Attention now shifts to the item below.
Prompt: # get_value(readout='IC50', item= "Cc1c(OCc2cnco2)ccc2c1CCN(C[C@@H](O)CNC(=O)c1ccnc(NC3CCN(C(=O)C4CC4)CC3)c1)C2" )
Response: 0.05 to 0.5 µM

###

Listing of entries alongside the reported IC50.
biological target: PRMT5 (Homo sapiens, UniProt O14744); construct: purchased Viva (custom protein); assay: PRMT5 IC50 assay in the presence of SAM as cofactor; format: biochemical

Look over these answered cases.
>>> result("Cc1nocc1COc1ccc2c(c1C)CCN(C[C@@H](O)CNC(=O)c1ccnc(NC3CCC3)c1)C2")
"500 to 5000 nM"
>>> result("CC(=O)N1CC(Nc2nc(C(=O)NC[C@H](O)CN3CCc4cc(OCc5ocnc5C)ccc4C3)cc(N3CCCCC3)n2)C1")
"500 to 5000 nM"
>>> result("CC(=O)N1CC(Nc2cc(C(=O)NC[C@H](O)CN3CCc4c(ccc(OCc5ocnc5C)c4C)C3)nc(N3CCOCC3)n2)C1")
"50 to 500 nM"
>>> result("Cc1ncoc1COc1ccc2c(c1)[C@@H](O)CN(C[C@@H](O)CNC(=O)c1ccnc(NC3CCC3)c1)C2 (single isomer, unassigned)")
"500 to 5000 nM"
>>> result("COCCN(C)c1cc(NC2CCN(C(C)=O)CC2)cc(C(=O)NC[C@H](O)CN2CCc3cc(OCc4ocnc4C)ccc3C2)c1 (single isomer, unassigned)")
"500 to 5000 nM"

Attention now shifts to the item below.
Prompt: # get_value(readout='IC50', item= "Cc1ncoc1COc1ccc2c(c1C)CCN(C[C@@H](O)CNC(=O)c1ccc(OC3CCN(Cc4ccncc4)CC3)cc1)C2" )
Response: 50 to 500 nM

###

Listing of entries alongside the reported IC50.
biological target: PRMT5 (Homo sapiens); construct: purchased Viva (custom protein); test: PRMT5 IC50 assay with no cofactor; type: biochemical

Look over these answered cases.
>>> result("CS(=O)(=O)N1CCC(Nc2cc(C(=O)NC[C@H](O)CN3CCc4cc(OCc5cnco5)ccc4C3)ccn2)CC1")
"0.5 to 5 µM"
>>> result("O=C(NC[C@H](O)CN1CCc2c(ccc(OCc3cnco3)c2Cl)C1)c1cc(NC2CCC2)ncn1")
"≥ 5 µM"
>>> result("COCCN(C)c1cc(C(=O)NC[C@H](O)CN2CCc3cc(OCc4ocnc4C)c(F)cc3C2)cc(NC2CCN(C(C)=O)CC2)n1")
"0.05 to 0.5 µM"

Prompt: # get_value(readout='IC50', item= "Cc1ncoc1COc1ccc2c(c1C)CCN(C[C@@H](O)CNC(=O)c1cc(NC3CCC3)nc(N3CCN(C(=O)C(C)C)CC3)c1)C2" )
Response: 0.5 to 5 µM

Prompt: # get_value(readout='IC50', item= "CC(=O)N1CC(Nc2nc(C(=O)NC[C@H](O)CN3CCc4cc(OCc5ocnc5C)ccc4C3)cc(N3CCCCC3)n2)C1" )
Response: ≥ 5 µM

###

target: PRMT5 (Homo sapiens, UniProt O14744); construct: purchased Viva (custom protein); assay: PRMT5 IC50 assay with no cofactor; format: biochemical; conditions: read-out: No Co-factor IC50
pIC50: −log10 of the molar value.
PROPERTY MEASURED: pIC50

>>> result("CC(=O)N1CCC(Nc2cc(C(=O)NC[C@H](O)CN3CCc4c(ccc(OCc5cnnn5C)c4C)C3)ncn2)CC1 [Compound 276]")
"≤ 5.30"
>>> result("CN(C)CCOc1cc(C(=O)NC[C@H](O)CN2CCc3cc(OCc4cnco4)ccc3C2)cc(NC2CCC2)n1 [Compound 315]")
"5.30 to 6.30"
>>> result("Cc1ncoc1COc1ccc2c(c1)CCN(C[C@@H](O)CNC(=O)c1cc(NC3CCC3)nc(N(C)C3CCC3)c1)C2 [Compound 635]")
"≤ 5.30"
>>> result("Cc1c(OCc2ccnn2C)ccc2c1CCN(C[C@@H](O)CNC(=O)c1ccnc(NC3CCC3)c1)C2 [Compound 161]")
"≤ 5.30"
>>> result("COCCN(C)c1nc(NC2COC2)cc(C(=O)NC[C@H](O)CN2CCc3cc(OCc4cnco4)ccc3C2)n1 [Compound 295]")
"5.30 to 6.30"

Prompt: # get_value(readout='pIC50', item= CC(=O)N1CCC(Nc2cc(C(=O)NC[C@H](O)CN3CCc4cc(OCc5ocnc5C)ccc4C3)cc(C3CCCCC3)n2)CC1 [Compound 641] )
Response: 5.30 to 6.30

Prompt: # get_value(readout='pIC50', item= CCN(C)c1nc(NC2COC2)cc(C(=O)NC[C@H](O)CN2CCc3cc(OCc4cnco4)ccc3C2)n1 [Compound 289] )
Response: 5.30 to 6.30

Prompt: # get_value(readout='pIC50', item= CCN1CCN(c2nc(NC3COC3)cc(C(=O)NC[C@H](O)CN3CCc4c(ccc(OCc5ocnc5C)c4C)C3)n2)CC1 [Compound 385] )
Response: ≤ 5.30

Prompt: # get_value(readout='pIC50', item= CC(=O)N1CCN(c2nc(NC3COC3)cc(C(=O)NC[C@H](O)CN3CCc4cc(OCc5ocnc5C)ccc4C3)n2)CC1 [Compound 401] )
Response: 5.30 to 6.30

Prompt: # get_value(readout='pIC50', item= Cc1c(OCc2ccnn2C)ccc2c1CCN(C[C@@H](O)CNC(=O)c1ccnc(NC3CCCC3)c1)C2 [Compound 277] )
Response: ≤ 5.30

Prompt: # get_value(readout='pIC50', item= COc1cc(C(=O)NC[C@H](O)CN2CCc3cc(OCc4cnco4)ccc3C2)cc(NC2CCC2)n1 [Compound 310] )
Response: ≤ 5.30

Prompt: # get_value(readout='pIC50', item= O=C(NC[C@H](O)CN1CCc2c(ccc(OCc3cnco3)c2Cl)C1)c1ccnc(NC2CCN(C(=O)C3CC3)CC2)c1 [Compound 366] )
Response: 5.30 to 6.30

Prompt: # get_value(readout='pIC50', item= O=C(NC[C@H](O)CN1CCc2c(ccc(OCc3cnco3)c2Cl)C1)c1ccnc(NC2CCC(F)CC2)c1 (some centres unmarked) [Compound 311] )
Response: ≤ 5.30

Prompt: # get_value(readout='pIC50', item= CN(C)CCOc1cc(C(=O)NC[C@H](O)CN2CCc3c(ccc(OCc4cnco4)c3Cl)C2)cc(NC2CCC2)n1 [Compound 329] )
Response: 5.30 to 6.30

###

molecular target: PRMT5 (Homo sapiens, UniProt O14744); construct: purchased Viva (custom protein); experiment: PRMT5 IC50 assay in the presence of SAM as cofactor; type: biochemical
PROPERTY MEASURED: IC50

Prompt: # get_value(readout='IC50', item= "CC(=O)N1CCC(Nc2cc(C(=O)NC[C@H](O)CN3CCc4cc(OCc5ocnc5C)ccc4C3)cc(C3CCCCC3)n2)CC1" )
Response: 50 to 500 nM

Prompt: # get_value(readout='IC50', item= O=C(NC[C@H](O)CN1CCc2c(ccc(OCc3cnco3)c2Cl)C1)c1ccnc(NC2CC(C(F)F)C2)c1 (stereo partly shown) )
Response: 500 to 5000 nM

Prompt: # get_value(readout='IC50', item= "Cc1c(OCc2cnco2)ccc2c1CCN(C[C@@H](O)CNC(=O)c1cccc(NC3CCOCC3)c1)C2" )
Response: 500 to 5000 nM

Prompt: # get_value(readout='IC50', item= "Cc1ncoc1COc1ccc2c(c1C)CCN(C[C@@H](O)CNC(=O)c1cc(NC3CCC3)ncn1)C2" )
Response: 500 to 5000 nM

Prompt: # get_value(readout='IC50', item= "Cc1c(OCc2ccnn2C)ccc2c1CCN(C[C@@H](O)CNC(=O)c1ccnc(NC3CCCCC3)c1)C2" )
Response: 500 to 5000 nM

Prompt: # get_value(readout='IC50', item= "CC(=O)N1CCC(Nc2cc(C(=O)NC[C@H](O)CN3CCc4cc(OCc5ocnc5C)ccc4C3)cc(N3CCCCC3)n2)CC1" )
Response: 50 to 500 nM

Prompt: # get_value(readout='IC50', item= "CC(C)Cc1cc(C(=O)NC[C@H](O)CN2CCc3c(ccc(OCc4cnco4)c3Cl)C2)cc(NC2CCC2)n1" )
Response: 500 to 5000 nM
